test system: SK-OV3; assay: Cytotoxicity in vitro, IC50 on SK-OV3; format: cell-based; conditions: ovarian adenocarcinoma
# IC50 values compiled below
Field format: number, assumed µM, no unit text.

Illustrative cases are given below, each with its answer.
CCCCCCCn1ccn(C)[c]1=[Pt]([I])[I].c1ccncc1 [Example 9]	0.2
CNC(=O)NCC(Cc1ccccc1)NC(=O)NCC(Cc1ccccc1)NC(=O)NCC(Cc1ccccc1)NC(=O)NCC(N)Cc1ccccc1.Cn1ccn(Cc2ccccc2)[c]1=[Pt]([I])[I] (stereo not drawn) [Example 39]	0.6
Cn1ccn(Cc2ccccc2)[c]1=[Pt]([I])([I])[N]1CCC[C@H]1C(N)=O [Example 25]	0.2
Cn1ccn(CCC[Si](C)(C)C)[c]1=[Pt]([I])[I].c1ccncc1 [Example 28]	0.2

Req: Entry under review: Cn1ccn(Cc2ccccc2)[c]1=[Pt]([I])([I])[NH]CCO [Example 26] . Reported IC50?
Resp: 0.2

Req: Lookup CN(C)c1cccc2c(S(=O)(=O)N3CC[N]([Pt]([I])([I])=[c]4n(C)ccn4Cc4ccccc4)CC3)cccc12 [Example 30]
Resp: 0.1

Req: Lookup CCC(C)[C@H]([NH][Pt]([I])([I])=[c]1n(C)ccn1Cc1ccccc1)C(=O)N[C@@H](CCCCNC(=O)OCc1ccccc1Cl)C(=O)NCC(=O)OC (stereo partly drawn) [Example 21]
Resp: 3.7

Req: Lookup COCCOCCOCCOCCn1ccn(CCOCCOCCOCCOC)[c]1=[Pt]([I])[I].NC1CCCCC1 [Example 14]
Resp: 6.2

---

test system: MCF7; experiment: Percentage of cellular inhibition at 10 μM, MCF7; type: cell-based; conditions: final concentration 10 μM; breast carcinoma
# Inhibition (in %) {MCF7} values compiled below
Field format: number, assumed %, no unit text.

CNC(=O)NCC(Cc1ccccc1)NC(=O)NCC(Cc1ccccc1)NC(=O)NCC(Cc1ccccc1)NC(=O)NCC(N)Cc1ccccc1.Cn1ccn(Cc2ccccc2)[c]1=[Pt]([I])[I] (stereo not shown)	95.9
Cn1ccn(CCC[Si](C)(C)C)[c]1=[Pt]([I])[I].c1ccncc1	99.2
N.N.[Cl][Pt][Cl] [Cisplatin, cisplatin, reference compound]	−4.1
Cn1ccn(Cc2ccccc2)[c]1=[Pt]([I])([I])[NH]CCO	96.3
CCC(C)[C@H]([NH][Pt]([I])([I])=[c]1n(C)ccn1Cc1ccccc1)C(=O)N[C@@H](CCCCNC(=O)OCc1ccccc1Cl)C(=O)NCC(=O)OC (stereo partly shown)	96.2

Req: Entry under review: COCCOCCOCCOCCn1ccn(C)[c]1=[Pt]([I])[I].NC1CCCCC1 . Reported Inhibition (in %) {MCF7}?
Resp: 94.2

Req: Lookup CN(C)c1cccc2c(S(=O)(=O)N3CC[N]([Pt]([I])([I])=[c]4n(C)ccn4Cc4ccccc4)CC3)cccc12
Resp: 99.3

Req: Lookup Cn1ccn(Cc2ccccc2)[c]1=[Pt]([I])([I])[N]1CCC[C@H]1C(N)=O
Resp: 96.2

Req: Lookup CCCCCCCn1ccn(C)[c]1=[Pt]([I])[I].c1ccncc1
Resp: 98.6

Req: Lookup COCCOCCOCCOCCn1ccn(CCOCCOCCOCCOC)[c]1=[Pt]([I])[I].NC1CCCCC1
Resp: 18.6

---

# Inhibition (in %) {HL60} values compiled below
tested on: HL60; assay: Percentage of cellular inhibition at 10 μM, HL60; assay type: cell-based; details: final concentration 10 μM; leukaemia
Field format: number, assumed %, no unit text.

Illustrative cases are given below, each with its answer.
Cn1ccn(Cc2ccccc2)[c]1=[Pt]([I])([I])[N]1CCC[C@H]1C(N)=O [Example 25]	91.0
Cn1ccn(Cc2ccccc2)[c]1=[Pt]([I])([I])[NH]CCO [Example 26]	92.5
CNC(=O)NCC(Cc1ccccc1)NC(=O)NCC(Cc1ccccc1)NC(=O)NCC(Cc1ccccc1)NC(=O)NCC(N)Cc1ccccc1.Cn1ccn(Cc2ccccc2)[c]1=[Pt]([I])[I] (stereo not shown) [Example 39]	91.0

Note: attention shifts to another entry.
Req: Entry under review: CCC(C)[C@H]([NH][Pt]([I])([I])=[c]1n(C)ccn1Cc1ccccc1)C(=O)N[C@@H](CCCCNC(=O)OCc1ccccc1Cl)C(=O)NCC(=O)OC (stereo partly shown) [Example 21] . Reported Inhibition (in %) {HL60}?
Resp: 90.5
